# maps each entry to its pKi
- EXPERIMENTAL_TARGET: EP3 membrane (EP3 receptor) (Homo sapiens, UniProt P43115)
- Construct: purchased Millipore HTS092M
- Sequence (P43115 whole entry): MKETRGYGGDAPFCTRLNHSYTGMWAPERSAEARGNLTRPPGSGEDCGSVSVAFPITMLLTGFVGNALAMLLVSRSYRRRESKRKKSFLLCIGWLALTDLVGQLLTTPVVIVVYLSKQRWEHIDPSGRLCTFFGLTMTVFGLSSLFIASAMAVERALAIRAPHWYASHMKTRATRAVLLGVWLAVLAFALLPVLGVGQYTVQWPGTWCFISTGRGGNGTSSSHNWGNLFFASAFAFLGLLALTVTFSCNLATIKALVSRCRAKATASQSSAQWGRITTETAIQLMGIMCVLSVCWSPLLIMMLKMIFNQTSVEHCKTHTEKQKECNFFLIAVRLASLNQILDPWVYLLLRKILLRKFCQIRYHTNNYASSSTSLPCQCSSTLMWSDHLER
- TEST_METHOD_NOTES: [3H]-PGE2 binding; EP3 competition binding (SPA)
The read-out pKi is expressed as -log10 of concentration in moles per litre.

Some compounds with known pKi results, for comparison:
{"columns": ["STRUCTURE_SMILES", "pKi"],
 "data": [
  ["Cc1ncc(S(=O)(=O)NC(=O)NC/C=C2\\CCCc3cnn(Cc4ccc(Cl)cc4Cl)c32)s1", 8.15],
  ["O=C(NC/C=C1\\CCCc2cnn(-c3ccc(Br)cc3)c21)NS(=O)(=O)c1cc(Cl)c(Cl)s1", 9.00]
]}

Record COc1ccc(Cl)cc1S(=O)(=O)NC(=O)NC/C=C1\COCc2cnn(Cc3ccc(Cl)cc3Cl)c21 has EP3 membrane (EP3 receptor) (Homo sapiens, UniProt P43115) pKi equal to 8.40

For the compound O=C(NC/C(F)=C1\CCCc2cnn(Cc3ccc(C(F)(F)F)cc3)c21)NS(=O)(=O)c1cc2ccccc2s1 , the measured pKi on EP3 membrane (EP3 receptor) (Homo sapiens, UniProt P43115) was 6.54

// compound Cc1cc(S(=O)(=O)NC(=O)NC/C(F)=C2\CCCc3onc(Cc4ccc(Cl)cc4Cl)c32)sc1Cl , assay EP3 membrane (EP3 receptor) (Homo sapiens, UniProt P43115), pKi value: 8.22

Reported EP3 membrane (EP3 receptor) (Homo sapiens, UniProt P43115) pKi for item O=C(C/C=C1\CCCc2cnn(Cc3ccc(Cl)cc3Cl)c21)NS(=O)(=O)c1cc2ccccc2o1 was 7.07

Entry Cc1nc(C)c(S(=O)(=O)NC(=O)NC/C(F)=C2\CCCc3cnn(Cc4ccc(Cl)cc4Cl)c32)s1 , tested on EP3 membrane (EP3 receptor) (Homo sapiens, UniProt P43115), has a reported pKi of 7.49

The reported EP3 membrane (EP3 receptor) (Homo sapiens, UniProt P43115) pKi of O=C(NC/C=C1\CCCc2cnn(Cc3ccc4ccccc4c3)c21)NS(=O)(=O)c1cc(Cl)c(Cl)s1 is 6.98

Measured on EP3 membrane (EP3 receptor) (Homo sapiens, UniProt P43115), O=C(NC/C(F)=C1\CCCc2onc(-c3ccc(Cl)cc3)c21)NS(=O)(=O)c1ccc(Cl)cc1 has a documented pKi of 5.31

// compound O=C(C/C=C1\CCCc2cnn(Cc3ccc(Cl)cc3Cl)c21)NS(=O)(=O)c1ccc2c(c1)OCCO2 , assay EP3 membrane (EP3 receptor) (Homo sapiens, UniProt P43115), pKi value: 6.83

Record for O=C(NC/C(F)=C1\CCCc2cnn(-c3ccc(C(F)(F)F)cc3)c21)NS(=O)(=O)c1ccc(Cl)s1 under target or system EP3 membrane (EP3 receptor) (Homo sapiens, UniProt P43115): pKi reported as 7.00

Case O=C(NC/C(F)=C1\CCCc2cnn(C3CCN(c4ccc(F)cc4)CC3)c21)NS(=O)(=O)c1cc(Cl)c(Cl)s1 , EP3 membrane (EP3 receptor) (Homo sapiens, UniProt P43115), pKi recorded as 7.89

The measured pKi that COc1ccc(S(=O)(=O)NC(=O)NC/C(F)=C2\CCCc3cnn(Cc4ccc(Cl)cc4Cl)c32)cc1Cl showed for EP3 membrane (EP3 receptor) (Homo sapiens, UniProt P43115) is 8.52
